- Test system: Plasmodium falciparum
- experiment-description: GSK_TCMDC: Inhibition of Plasmodium falciparum Dd2 in whole red blood cells, using parasite LDH activity as an index of growth. Test compounds present at 2uM
- Format: functional
property-measured: Inhibition (%)
State the answer as a number, implicitly in %.

Guide cases for Inhibition, answers given:
[
  {
    "compound": "Cc1noc(C)c1CN1Cc2ccccc2OC2(CCN(Cc3c[nH]c4cnccc34)CC2)C1.O=C(O)C(F)(F)F",
    "reported-result": 12
  },
  {
    "compound": "Cc1cc(Br)cnc1CCCCNC1=NC(=O)CN1C",
    "reported-result": 26
  },
  {
    "compound": "CC(C)Sc1nc2c(c(=O)n1Cc1ccco1)C1(CCCCC1)Cc1ccccc1-2",
    "reported-result": 99
  },
  {
    "compound": "CCCC(C)NC[C@@H](O)[C@H](Cc1ccccc1)NC(=O)c1cc(C2CCCC2)cc(N2CCCCS2(=O)=O)c1.Cl (some centres undefined)",
    "reported-result": 99
  },
  {
    "compound": "Cc1cc(N2Cc3ccccc3C2)nc(Nc2ccc(S(=O)(=O)N3CCOCC3)cc2)n1.Cl",
    "reported-result": 85
  }
]

// sample Cl.c1ccc2c(Nc3ccc(Cc4ccc(Nc5c6ccccc6nc6ccccc56)cc4)cc3)c3ccccc3nc2c1 , its Inhibition was 100

The compound listed as COc1ccc(-c2cccc(NC(=O)c3cccc(C#N)c3)c2)cc1CNC(C)C.O=C(O)C(F)(F)F shows Inhibition equal to 51

Lab note: measured Inhibition of CN(C(=O)/C=C/c1c(Cl)cccc1Cl)C1CCN(CCCCCNC(=O)/C=C/c2ccc(Cl)c(Cl)c2)CC1 was 62

# Inhibition of COc1ccc(F)cc1-c1ccc(C(=O)N2CCCN(c3ccc(C(F)(F)F)cn3)CC2)cc1 = 100

---

- Test system: HepG2
- experiment-description: GSK_TCMDC: Percent inhibition of human HepG2 cell line. Test compounds present at 10uM.
- Format: functional
Decision: Inhibition compared against 30%; not below it gives Satisfied, below it gives Not satisfied.

Here's what some known entries look like.
[
  {
    "smiles-data": "O=C(NCCCCN1CCC(c2c[nH]c3ccccc23)CC1)c1sc(-c2ccc(C(F)(F)F)cc2)nc1CO",
    "label-class": "Satisfied"
  },
  {
    "smiles-data": "COc1ccc2nccc([C@@H](O)CN3CCC(NCc4cc5cc(Cl)ccc5[nH]4)CC3)c2c1.O=C(O)C(=O)O",
    "label-class": "Not satisfied"
  },
  {
    "smiles-data": "CCN(CC)/C(=N\\C(=N)NCCCCCCNC(=N)/N=C(\\Nc1ccc(Cl)cc1)N(CC)CC)Nc1ccc(Cl)cc1",
    "label-class": "Not satisfied"
  },
  {
    "smiles-data": "CCC(C)(CC)C(=O)n1ncc2c3c(N)nc(N)nc3ccc21",
    "label-class": "Satisfied"
  }
]

Q: Please tell me: is the compound Cc1cnc(Nc2cccc(CCN3CCOCC3)c2)nc1NC(C)C.Cl at or over 30% in terms of Inhibition?
Ans: Satisfied

---

- Tested on: Plasmodium falciparum
- experiment-description: GSK_TCMDC: Inhibition of Plasmodium falciparum Dd2 in whole red blood cells, using parasite LDH activity as an index of growth. Test compounds present at 2uM
- Assay type: functional
Inhibition values for the compounds below.
Just the number plus its unit, please.

Consider the following illustrative entries.
[
  {
    "compound": "COc1cc(C2NCC3(CCOCC3)c3cc4c(cc32)OCCO4)cc(OC)c1OC.Cl (configuration not stated)",
    "reported-result": "2%"
  },
  {
    "compound": "CCNc1cc(C(=O)N[C@@H](Cc2ccccc2)[C@H](O)CNCc2cc(OC)cc(OC)c2)cc(N2CCCS2(=O)=O)c1.Cl",
    "reported-result": "86%"
  }
]

Inhibition on Plasmodium falciparum for CC(C)(C)c1nn(-c2ccccc2)c2[nH]c(=O)c(CNCCc3ccccc3)cc12 is 90%

Summary: CS(=O)(=O)CCNCc1cccc(-c2ccc3c(Nc4ccc(Oc5cccnc5)cc4)ccnc3c2)c1 , Plasmodium falciparum, Inhibition = 99%

Known value: Plasmodium falciparum Inhibition of the compound Br.N=C1N=C(N)NC2(CCCCC2)N1OCCCOc1cc(Cl)c(Cl)cc1Cl equals 98%

Readout Inhibition for O=C(Nc1ccc(-c2nc3ccccc3[nH]2)cc1)c1ccc(Cl)c([N+](=O)[O-])c1 , test system Plasmodium falciparum, was 4%

Entry Cc1sc2ncnc(Sc3nc4ccccc4[nH]3)c2c1C , tested on Plasmodium falciparum, has a reported Inhibition of 100%

Query CCOC(=O)c1ccc(NC(=O)N(Cc2ccc(-c3cccc(CN4CCNCC4)c3)cc2)C2CCN(Cc3ccccc3)CC2)cc1.O=C(O)C(F)(F)F on Plasmodium falciparum; Inhibition returned: 55%

Record for COc1ccc2c(Nc3ccc(N4CCN(C)CC4)cc3)cc(C)nc2c1 under target or system Plasmodium falciparum: Inhibition reported as 9%

Inhibition on Plasmodium falciparum for O=C(CSc1nccn1C1CCCCC1)Nc1cc(C(F)(F)F)ccc1Cl is 95%

Log: Plasmodium falciparum, compound CCCC(=O)Nc1ccc(OCCCCN(Cc2ccccc2C(F)(F)F)c2ccc(C(F)(F)F)c(C#N)c2)cc1 , Inhibition = 94%

GET /values?item= O=C(O)C(F)(F)F.O=S(=O)(/C=C/c1ccccc1)N(Cc1ccc(-c2ccc(CNCCc3ccccn3)cc2)cc1)CC1CCCCN1 (configuration not stated) &system= Plasmodium falciparum returns Inhibition: 97%

Inhibition of COCCN1CCC(N(Cc2ccc(-c3ccc(C(F)(F)F)cc3)cc2)C(=O)Cn2c(CCc3cccc(F)c3F)cc(=O)c3c2CCC3)CC1.O=C(O)C(O)C(O)C(=O)O , assay on Plasmodium falciparum, is 48%

Inhibition for Plasmodium falciparum with input O=C(c1ccccc1)N1COCC(CCN2CCC(N3CCCC3)CC2)(c2ccc(Cl)c(Cl)c2)C1 (configuration not stated) equals 9%

# Inhibition measured on Plasmodium falciparum for item Cc1ccc(NC(=O)c2ccc3ncccc3c2)cc1OC1CCN(Cc2ccc(F)cc2)C1.O=C(O)C(F)(F)F (configuration not stated) = 28%

Field Inhibition (Plasmodium falciparum), entry Cc1cccc2nc(-c3cccc(-c4ccc(NC(=O)C5CC(=O)Nc6ccccc65)cc4)c3)[nH]c12 (configuration not stated) : 56%

Form field Inhibition for item O=C(NC1CCN(c2ccnc3cc(Cl)ccc23)C1)c1ccc(F)cc1.O=C(O)C(F)(F)F (configuration not stated) on Plasmodium falciparum: 97%

---

In this section we review reported Inhibition values for a set of molecules.
- Tested on: Plasmodium falciparum
- experiment-description: GSK_TCMDC: Inhibition of Plasmodium falciparum Dd2 in whole red blood cells, using parasite LDH activity as an index of growth. Test compounds present at 2uM
- Type: functional
Respond numerically; units are % and should not be typed.

[
  {
    "molecule": "Br.CC1(C)NC(N)=NC(=N)N1OCCNCc1ccc(Cl)cc1",
    "Inhibition / %": 0
  },
  {
    "molecule": "Cc1cccc2nc(-c3ccc(-c4cccc(CN5CCCC(N)C5)c4)s3)[nH]c12.O=C(O)C(F)(F)F (stereo not drawn)",
    "Inhibition / %": 94
  },
  {
    "molecule": "O=C(Nc1cc(Cl)cc(Cl)c1)c1cc(Cl)c(=O)n(Cc2cccc(Cl)c2)c1",
    "Inhibition / %": 62
  },
  {
    "molecule": "COc1ccc(N2C(=O)c3c(c4ccccc4n3C)C2c2ccccc2O)cc1 (stereo not drawn)",
    "Inhibition / %": 91
  },
  {
    "molecule": "COc1c(C2=CCN(CCCCNC(=O)c3ccc(-c4ccc(C#N)cc4)cc3)CC2)ccc2c1CCCC2",
    "Inhibition / %": 82
  }
]

// recorded Inhibition for CC1CCCN1Cc1ccc(-c2ccc3c(=O)cc(CCc4cccc(F)c4F)n(CC(=O)N(C)Cc4ccc(-c5ccc(C(F)(F)F)cc5)cc4)c3n2)cc1.O=C(O)C(O)C(O)C(=O)O (stereo not drawn) : 91

Recorded Inhibition (molecule CC1CCN(CC[C@H]2CCCN2S(=O)(=O)c2cccc(NC(=O)c3ccc(-c4ccccc4)cc3)c2)CC1 ): 36

// Inhibition value for Cl.O=C(NC1CCC(N2CCN(c3cccc4[nH]ccc34)CC2)CC1)c1cc2cccnc2[nH]1 (stereo not drawn) : 85

---

- Tested on: Plasmodium falciparum
- experiment-description: GSK_TCMDC: Inhibition of Plasmodium falciparum Dd2 in whole red blood cells, using parasite LDH activity as an index of growth. Test compounds present at 2uM
- Format: functional
property-measured: Inhibition (%)
Hi! Could you send only the number? It should be in %, unit omitted.

[
  {
    "smiles-data": "Br.CC1(C)NC(N)=NC(=N)N1OCCCOc1cc(Cl)ccc1Cl",
    "property-measured": "Inhibition",
    "reported-result": 96
  }
]

Briefly, Inhibition measured for O=C(Nc1cccc(N2CCC(NCc3cnn(-c4cccc(F)c4)c3)CC2)c1)c1ccncc1 : 40

For CC(C)(C)NS(=O)(=O)c1cc(C(=O)N2CCC(CCN3CCC(C(=O)c4ccc(F)cc4)CC3)(c3cccc(F)c3)CC2)c(Cl)cc1F the compound record lists Inhibition as 99

Entry under test: COc1cc(-n2cnc3cc(-c4ccc([N+](=O)[O-])cc4)sc3c2=O)ccc1OCCN1CCCC1.O=C(O)C(F)(F)F . Its Inhibition was 79
